molecular target: Cytochrome P450 1A2 (Homo sapiens) (UniProt P05177); assay: Cytochrome P450 Family 1 Subfamily A Member 2 (CYP1A2) small molecule antagonists: luciferase reporter qHTS assay (AID 1671199); conditions: P450-Glo CYP1A2 enzyme, luciferin luminescence, 1 h; series mostly up to 115 µM; note: nearly all actives have a fitted effect of over 50% in size
Sequence (P05177 whole entry, looked up): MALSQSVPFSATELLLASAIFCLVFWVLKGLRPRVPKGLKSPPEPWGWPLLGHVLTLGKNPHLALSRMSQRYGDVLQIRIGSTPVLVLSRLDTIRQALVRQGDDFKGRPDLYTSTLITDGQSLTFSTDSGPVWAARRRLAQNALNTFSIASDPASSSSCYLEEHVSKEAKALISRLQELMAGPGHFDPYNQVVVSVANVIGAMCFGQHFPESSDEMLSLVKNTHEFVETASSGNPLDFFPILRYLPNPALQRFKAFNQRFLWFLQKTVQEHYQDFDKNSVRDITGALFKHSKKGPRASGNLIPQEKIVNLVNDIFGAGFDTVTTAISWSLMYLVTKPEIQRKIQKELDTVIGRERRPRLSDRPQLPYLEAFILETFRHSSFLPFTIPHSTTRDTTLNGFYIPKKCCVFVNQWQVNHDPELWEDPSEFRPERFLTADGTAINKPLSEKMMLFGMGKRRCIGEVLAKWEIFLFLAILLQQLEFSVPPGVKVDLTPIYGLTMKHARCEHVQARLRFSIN
Records with an inconclusive call do not appear. The source made the active and inactive calls. Calls come from the whole dose curve; as a rule, active = well fitted inhibition curve with a large enough effect in the repeat runs; inconclusive = weak or mixed curves; inactive = no such curve, though single readings can be large or run the other way.
API: response.call in active, inactive

Exercise: Just curious, what result did ClC1=C(Cl)[C@]2(Cl)[C@@H]3[C@@H](Cl)[C@H](Cl)C[C@@H]3[C@@]1(Cl)C2(Cl)Cl get here?
Key: inactive

Exercise: Just curious, what result did Oc1c(Br)c(Br)c(Br)c(Br)c1Br get here?
Key: active

Exercise: Just curious, what result did Oc1ccc(C2(c3ccc(O)cc3)c3ccccc3-c3ccccc32)cc1 get here?
Key: active

Exercise: Just curious, what result did CCCCCCCCCCCCCCCCCCn1cc[n+](C)c1 get here?
Key: active

Exercise: Just curious, what result did O=C(O)C1C2CCC(O2)C1C(=O)O (stereo unspecified) get here?
Key: inactive

Exercise: Just curious, what result did CCc1nn(C)c(C(=O)NCc2ccc(C(C)(C)C)cc2)c1Cl get here?
Key: active

Exercise: Just curious, what result did CCCCCCCCCCCCCC[P+](CCCCCC)(CCCCCC)CCCCCC (tested in a mixture with another compound) get here?
Key: active

Exercise: Just curious, what result did CN(C)CCc1c[nH]c2ccc(O)cc12 get here?
Key: inactive

Exercise: Just curious, what result did COC12CC[C@@]3(C[C@@H]1C(C)(O)C(C)(C)C)[C@H]1Cc4ccc(O)c5c4[C@@]3(CCN1CC1CC1)[C@H]2O5 (stereo partly specified) get here?
Key: inactive

Exercise: Just curious, what result did COc1cccc(C(=O)CCN[C@@H](C)[C@H](O)c2ccccc2)c1 get here?
Key: active

Exercise: Just curious, what result did Oc1cc(Cl)c(Cl)c(Cl)c1 get here?
Key: active

###

experiment: qHTS assay to identify small molecule agonists of the farnesoid-X-receptor (FXR) signaling pathway - cell viability counter screen (AID 743218); conditions: FXR-bla HEK293T viability, CellTiter-Glo luminescence, 16 h; series mostly up to 62.6 µM; note: nearly all actives have a fitted effect of over 45% in size
Results filed as inconclusive are left out. Activity calls are given as the source filed them. Calls follow the shape of the dose curve; as a rule, active = well fitted cell-killing curve with a large enough effect in the repeat runs; inconclusive = weak or mixed curves, or effect the other way; inactive = no such curve, though single readings can be large or run the other way.
API: response.call in active, inactive

Exercise: Just curious, what result did C[C@H]1O[C@@H](O[C@H]2[C@@H](O)C[C@H](O[C@H]3[C@@H](O)C[C@H](O[C@H]4CC[C@@]5(C)[C@H](CC[C@@H]6[C@@H]5CC[C@]5(C)[C@@H](C7=CC(=O)OC7)CC[C@]65O)C4)O[C@@H]3C)O[C@@H]2C)C[C@H](O)[C@@H]1O get here?
Key: active

Exercise: Just curious, what result did [Hg+2].[I-].[I-] get here?
Key: active

Exercise: Just curious, what result did CN(C)[C@@H]1C(=O)C(C(N)=O)=C(O)[C@@]2(O)C(=O)C3=C(O)c4c(O)ccc(Cl)c4[C@@](C)(O)[C@H]3C[C@@H]12 get here?
Key: inactive

Exercise: Just curious, what result did Nc1ccccc1C(=O)Oc1ccc2ccccc2c1 get here?
Key: inactive

Exercise: Just curious, what result did c1ccc(OCC2CO2)cc1 (stereo not drawn) get here?
Key: inactive

Exercise: Just curious, what result did Oc1ccc(C2(c3ccc(O)cc3)c3ccccc3-c3ccccc32)cc1 get here?
Key: active

Exercise: Just curious, what result did O=C(O)c1cc[c]([Hg][Cl])cc1 get here?
Key: active

Exercise: Just curious, what result did CCCCCCCCCCCCCN1CC(C)OC(C)C1 (stereo not drawn) get here?
Key: inactive

Exercise: Just curious, what result did COc1ccc(N)cc1N get here?
Key: inactive

Exercise: Just curious, what result did Cc1cc(C)c(C2=C(OC(=O)CC(C)(C)C)C3(CCCC3)OC2=O)c(C)c1 get here?
Key: inactive

Exercise: Just curious, what result did COc1cc(N)c(Cl)cc1C(=O)NC1CN2CCC1CC2 (stereo not drawn) get here?
Key: inactive

Exercise: Just curious, what result did CCCCCCCCCBr get here?
Key: inactive

Exercise: Just curious, what result did CCOC(=O)CC(=O)CCl get here?
Key: inactive

Exercise: Just curious, what result did CCN get here?
Key: inactive

Exercise: Just curious, what result did CC1(C)C(/C=C(\Cl)C(F)(F)F)C1C(=O)OC(C#N)c1cccc(Oc2ccccc2)c1 (stereo not drawn) get here?
Key: inactive

Exercise: Just curious, what result did O=C(O)C1C2CCC(O2)C1C(=O)O (stereo not drawn) get here?
Key: inactive

Exercise: Just curious, what result did CC(=O)/C=C/c1ccc2c(c1)OCO2 get here?
Key: inactive

Exercise: Just curious, what result did CCOC(=O)C1(c2ccccc2)CCN(CCC(C#N)(c2ccccc2)c2ccccc2)CC1 get here?
Key: inactive

Exercise: Just curious, what result did C=CCC1=C(C)C(OC(=O)C2C(C=C(C)C)C2(C)C)CC1=O (stereo not drawn) get here?
Key: active

Exercise: Just curious, what result did CCOc1cc(C(C)(C)C)ccc1C1COC(c2c(F)cccc2F)=N1 (stereo not drawn) get here?
Key: active

Exercise: Just curious, what result did CC(C)CCCCCOC(=O)c1ccccc1C(=O)OCCCCCC(C)C get here?
Key: inactive

Exercise: Just curious, what result did ClC1=C(Cl)[C@]2(Cl)[C@@H]3[C@@H]4C[C@@H]([C@H]5O[C@@H]45)[C@@H]3[C@@]1(Cl)C2(Cl)Cl get here?
Key: active

Exercise: Just curious, what result did BrCBr get here?
Key: inactive
